Details: in sec-butanol, 298.2 K
measurement type: solubility (mole fraction)

The recorded solubility (mole fraction) for CC(=O)Oc1ccc(C2CC(=O)c3c(OC(C)=O)cc(OC(C)=O)cc3O2)cc1 (stereo unspecified) is 0.000507

---

Conditions: in THF, 318.2 K
measurement type: solubility (mole fraction)
Format: numeric value only, no unit, no commentary.

The recorded solubility (mole fraction) for CC(=O)Oc1ccc(C2CC(=O)c3c(OC(C)=O)cc(OC(C)=O)cc3O2)cc1 (stereo unspecified) is 0.0902

---

Conditions: in 2-butoxyethanol, 288.2 K
measurement type: solubility (mole fraction)
Format: numeric value only, no unit, no commentary.

The recorded solubility (mole fraction) for CC(=O)Oc1ccc(C2CC(=O)c3c(OC(C)=O)cc(OC(C)=O)cc3O2)cc1 (stereo unspecified) is 0.00253
